Provide the recorded AC50 for the entries that follow.
Tested on: MALME3 melanoma viability, CellTiter-Glo luminescence, 24 h
Experiment: MALME3 melanoma cell viability loss, dose response, orthogonal assay for MITF inhibitor project, CellTiter-Glo, dry powder samples (AID 540339)

Query string: Consider the compound shown here: Cc1ccc(C(=O)N/N=C/c2ccc([N+](=O)[O-])s2)cc1 What is its recorded AC50?
Result string: 14.8 µM

Query string: Need AC50 of O=C(Nc1ccc(-c2nc3ncccc3o2)cc1)c1ccc([N+](=O)[O-])o1 , thanks.
Result string: 14.5 µM

Query string: For the compound CCN1c2ccccc2NC2N=C(OC)C(c3ccccc3)C21 (stereo unspecified) , what AC50 is on record?
Result string: 7.91 µM

Query string: # input compound: CCN1CCN(C2=C(NS(=O)(=O)c3ccc(Br)cc3)C(=O)c3ccccc3C2=O)CC1 ; wanted: its AC50
Result string: 17.7 µM

Query string: Which AC50 is reported for this compound? Cc1nc2ccccc2n1/N=C/c1ccc([N+](=O)[O-])s1
Result string: 10.3 µM

Query string: Looking for the measured AC50 of COc1cc(/C=N/NC(N)=O)c(Br)cc1OCC(=O)Nc1ccccc1C , can you help?
Result string: 32.8 µM

Query string: Could you share which AC50 value was measured for CCN(CC)CCNC(=O)c1c(C)n(-c2ccccc2)c2cc(Br)c(OC)cc12 ?
Result string: 34.1 µM

Query string: Query: AC50; subject: O=C(Cn1ncc(Cl)c(Cl)c1=O)N1CCc2ccccc21
Result string: 5.07 µM

Query string: Which AC50 is listed for CC1CCN(CC(CS(=O)(=O)c2ccc([N+](=O)[O-])cc2)N2CCC(C)CC2)CC1 (stereo unspecified) ?
Result string: 18.6 µM

Query string: If you can, please state the reported AC50 value of CN(C)CCCNC(=O)/C(=C\c1ccc(-c2ccc(Br)cc2)o1)NC(=O)c1ccccc1 .
Result string: 17.4 µM

Query string: Requested read-out: AC50. Entry: CCN1CCCC1CNC(=O)c1ccc2c(c1)NC(=O)/C(=C\c1ccc(C)cc1)S2 (stereo unspecified)
Result string: 20 µM

Query string: Please give the measured AC50 for this compound: O=C(Nc1ccc(N2CCN(C(=O)c3ccccc3)CC2)cc1)c1ccc([N+](=O)[O-])o1
Result string: 16.7 µM

Query string: AC50 lookup needed for CC1CN(C(=O)CCC(=O)NCCCN2CCC(Cc3ccccc3)CC2)c2cc(Cl)ccc2O1 (stereo unspecified) , thanks.
Result string: 29.9 µM

Query string: Report AC50 for CC1=NNC(=O)/C1=C\c1cn(-c2ccccc2)nc1-c1ccc(F)cc1 please.
Result string: 36.5 µM

Query string: Could you share which AC50 value was measured for CC(C)C(CCNC1CCN(C)CC1)c1ccc(Cl)cc1 (stereo unspecified) ?
Result string: 4.04 µM

Query string: # query: AC50 of entry Cc1[nH]c2ccccc2c1C(=O)CCl
Result string: 31.8 µM

Query string: Quick one: AC50 of C=CCNC1=C(Cl)C(=O)c2ccccc2C1=O ?
Result string: 8.93 µM

Query string: Entry CC1(C)CC(NC(=O)c2ccc(Cl)c(S(=O)(=O)N(Cc3ccccc3)c3ccccc3)c2)CC(C)(C)N1 : reported AC50 = ?
Result string: 17.4 µM

Query string: Report AC50 for Cc1ccc(C(C)C)c(OCc2nn(CC(=O)c3ccc(Cl)cc3)c3[n+]2CCCCC3)c1 please.
Result string: 23.1 µM

Query string: For COc1cc2c(cc1OC)C(c1ccccc1)N(C(=O)CCl)CC2 (stereo unspecified) , what is its reported AC50?
Result string: 18 µM

Query string: What AC50 value was documented for this compound, O=C(CNc1cccc2ccccc12)N/N=C/c1ccc([N+](=O)[O-])o1 ?
Result string: 20 µM

The measurements presented in this section are drawn from PubChem BioAssay AID540339.
